Field: TGI. Provide a value for each of the compounds that follow.
Tested on: MALME-3M melanoma
Assay: NCI tumour cell line growth inhibition, 48 h
Numbers only, in µM.

Some entries whose results are on file:
Compound	Target under test	TGI (µM)
COc1ccc(/C=C/C2C(C#N)=C(N)OC3=C2C(=O)CCC3)cc1 (stereo unspecified)	MALME-3M melanoma	87.1
Cc1cc(=O)n2nnc3c4ccccc4ccc3n12	MALME-3M melanoma	8.19
Clc1ccccc1/C=C/c1ccnc2ccccc12	MALME-3M melanoma	35.4
Cc1oc2c(C(=O)N/N=C\c3ccc(O)cc3O)c[nH]c2c1C	MALME-3M melanoma	25.3

// lookup TGI for COc1cc(/C=C2\C(=O)Nc3ccccc32)cc(OC)c1O
21.8

----------
Test system: SN12C renal
Assay: NCI tumour cell line growth inhibition, 48 h
Assay readout: TGI (µM)
One number for each entry, in µM.

Molecule	Target under test	TGI, µM
COc1ccc(/C=C2\CCC(CN3CCOCC3)C2=O)cc1 (stereo unspecified)	SN12C renal	12.3

Field: TGI. Fill in for each record below.
1. O=c1ccccc(-c2ccc(Br)cc2)c1O
2. CCC12C=CCN3CCC4(c5cc(C6(C(=O)OC)CCCCCc7c6[nH]c6ccccc76)c(OC)cc5N(C)C4C(O)(C(=O)OC)C1OC(C)=O)C32 (stereo unspecified)
3. COc1ccc(/C=C2\COc3ccc(O)c(O)c3C2=O)cc1
4. CCOC(=O)/C(C#N)=C\C=C(\Sc1nc2ccccc2s1)c1ccc(Cl)cc1
5. COC1/C(=C\c2ccccc2I)c2ccccc2N1C(C)=O (stereo unspecified)
6. C=C(C(=O)OC)N1C(=O)CC(C)C1=O (stereo unspecified)
7. O=c1c2ccccc2n2c(-c3ccc(O)cc3)nnc2n1-c1ccccc1
8. COc1cc([C@@H]2c3cc4c(cc3[C@@H](OC3OC5CO[C@@H](c6cccs6)OC5C(O)C3O)[C@H]3COC(=O)[C@H]23)OCO4)cc(OC)c1O (stereo partly specified)

[16.4, 12.8, 2.53, 45.2, 28.8, 31.1, 32.2, 2.33]

// lookup TGI for COc1cc2c3c(n(CCCNC4=NCCS4)c(=O)c2cc1OC)-c1cc2c(cc1C3=O)OCO2
0.408

----------
Test system: NCI-H522 lung
Test: NCI tumour cell line growth inhibition, 48 h
Where a SMILES comes first, the peptide text is derived from it.
Assay readout: TGI

Some entries whose results are on file:
Molecule	Assay readout	Reading
COC[C@@H]1[C@H]2OC(C)(C)O[C@H]2C(=O)N1C(=O)c1ccc(OC)cc1	TGI	> 100 µM
CCC(C)C(NC(=O)C(NC(=O)C(CC(N)=O)NC(=O)CN)C(C)O)C(=O)NC(C(=O)NC(C)C(=O)NC(C(=O)NC(CCC(=O)O)C(=O)NC(CC(C)C)C(=O)NC(CC(=O)O)C(=O)NC(C(=O)NC(Cc1ccc(O)cc1)C(=O)N1CCCC1C(=O)O)C(C)O)C(C)C)C(C)C (stereo not drawn) (H-GNTIVAVELDTYP-OH; configuration not given here)	TGI	> 50 µM
O=NN1CCNC1Cc1ccccc1 (stereo not drawn)	TGI	> 100 µM
C=C1C(O)C2C(=C(CCC3CC3)C13CC3)C(=O)C(C)(C)C2O (stereo not drawn)	TGI	> 100 µM
Nn1c(SCC(=O)O)nc2ccccc2c1=O	TGI	> 100 µM
CC1OC(Oc2c(-c3cc(O)c(O)c(O)c3)oc3cc(O)cc(O)c3c2=O)C(O)C(O)C1O (stereo not drawn)	TGI	> 100 µM
O=C(NC(=S)Nc1ccc2c(c1)Sc1ccccc1O2)c1ccccc1	TGI	> 100 µM
CCCN1C/C(=C\c2ccc(O)c(OC)c2)C(=O)/C(=C/c2ccc(O)c(OC)c2)C1	TGI	> 100 µM

Field: TGI. Fill in for each record below.
1. CN1CCCC2[C@@H]3CCC4=C(O)C(=O)CC[C@]4(C)C3CC[C@@]21C (stereo partly drawn)
2. S=c1[nH]nc(-c2ccccc2)n1/N=C\c1ccc(-c2ccc(Cl)cc2)o1
3. O=C(O)c1ccc(NCc2nc3cc(Cl)c(Cl)cc3[nH]2)cc1
4. COc1cc(/C=C/C(=O)c2ccccc2)cc(OC)c1OC

["> 100 µM", "> 100 µM", "> 100 µM", "3.88 µM"]
